target: T1, hIL-4Rα.ECD (human, UniProt P24394 26-232); experiment: SPR, antibody captured by anti-human Fc on CM5, hIL-4Rα.ECD analyte
T1 construct: extracellular domain; also called hIL-4Rα protein
Readout: koff (s⁻¹)
Dear colleague, please return just the value in s⁻¹, with no unit written.

m21 (antibody, V domains shown, captured by anti-human Fc); also called m21 molecule) VH: QVQLVQSGAEVKKPGASVKVSCKASGYTFTTYYIYWVRQAPGQGLEWMGGSNPSTGGTLENEKFKTRVTMTVDKSTSTAYMELSSLRSEDTAVYYCTRSGRYAPFTYWGQGTLVTVSS VL: DIQMTQSPSSLSASVGDRVTITCKASQDVSTSVAWYQQKPGKAPKLLIYSASYRFTGVPSRFSGSGSGTDFTFTISSLQPEDFATYYCVHYSTTPFTFGQGTKLEIK	7.76e-05
m8 (antibody, human IgG4 S228P, kappa, V domains shown, also called m8 molecule; anti-IL-4R antibody m8) VH: QVQLVQSGAEVKKPGASVKVSCKASGYTFTTYYIYWVRQAPGQGLEWMGGSNPSTGGTLDNEKFKTRVTMTVDKSTSTAYMELSSLRSEDTAVYYCTRSGRYAPFTYWGQGTLVTVSS VL: DIQMTQSPSSLSASVGDRVTITCKASQDVSTSVAWYQQKPGKAPKLLIYSASYRFTGVPSRFSGSGSGTDFTFTISSLQPEDFATYYCQHYSTTPFTFGQGTKLEIKR	3.95e-05
Dupilumab (antibody, V domains shown) VH: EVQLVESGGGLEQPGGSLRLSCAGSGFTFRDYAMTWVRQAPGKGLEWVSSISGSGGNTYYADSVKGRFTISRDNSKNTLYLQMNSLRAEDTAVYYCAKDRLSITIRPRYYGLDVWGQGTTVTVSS VL: DIVMTQSPLSLPVTPGEPASISCRSSQSLLYSIGYNYLDWYLQKSGQSPQLLIYLGSNRASGVPDRFSGSGSGTDFTLKISRVEAEDVGFYYCMQALQTPYTFGQGTKLEIKR	5.4e-05

Prompt: Reported koff, binder m27 (antibody, V domains shown, captured by anti-human Fc); also called m27 molecule) VH: QVQLVQSGAEVKKPGASVKVSCKASGYTFTTYYIYWVRQAPGQGLEWMGGSNPSTGGTLENEKFKTRVTMTVDKSTSTAYMELSSLRSEDTAVYYCTRSGRYATFTYWGQGTLVTVSS VL: DIQMTQSPSSLSASVGDRVTITCKASQDVSTSVAWYQQKPGKAPKLLIYSASYRFTGVPSRFSGSGSGTDFTFTISSLQPEDFATYYCVHYSTTPFTFGQGTKLEIK : ____
Completion: 0.000112
